Molecular target: BRM (Homo sapiens, UniProt P51531)
Construct: made in house; host or cells: High Five insect cells
Sequence (P51531 whole entry): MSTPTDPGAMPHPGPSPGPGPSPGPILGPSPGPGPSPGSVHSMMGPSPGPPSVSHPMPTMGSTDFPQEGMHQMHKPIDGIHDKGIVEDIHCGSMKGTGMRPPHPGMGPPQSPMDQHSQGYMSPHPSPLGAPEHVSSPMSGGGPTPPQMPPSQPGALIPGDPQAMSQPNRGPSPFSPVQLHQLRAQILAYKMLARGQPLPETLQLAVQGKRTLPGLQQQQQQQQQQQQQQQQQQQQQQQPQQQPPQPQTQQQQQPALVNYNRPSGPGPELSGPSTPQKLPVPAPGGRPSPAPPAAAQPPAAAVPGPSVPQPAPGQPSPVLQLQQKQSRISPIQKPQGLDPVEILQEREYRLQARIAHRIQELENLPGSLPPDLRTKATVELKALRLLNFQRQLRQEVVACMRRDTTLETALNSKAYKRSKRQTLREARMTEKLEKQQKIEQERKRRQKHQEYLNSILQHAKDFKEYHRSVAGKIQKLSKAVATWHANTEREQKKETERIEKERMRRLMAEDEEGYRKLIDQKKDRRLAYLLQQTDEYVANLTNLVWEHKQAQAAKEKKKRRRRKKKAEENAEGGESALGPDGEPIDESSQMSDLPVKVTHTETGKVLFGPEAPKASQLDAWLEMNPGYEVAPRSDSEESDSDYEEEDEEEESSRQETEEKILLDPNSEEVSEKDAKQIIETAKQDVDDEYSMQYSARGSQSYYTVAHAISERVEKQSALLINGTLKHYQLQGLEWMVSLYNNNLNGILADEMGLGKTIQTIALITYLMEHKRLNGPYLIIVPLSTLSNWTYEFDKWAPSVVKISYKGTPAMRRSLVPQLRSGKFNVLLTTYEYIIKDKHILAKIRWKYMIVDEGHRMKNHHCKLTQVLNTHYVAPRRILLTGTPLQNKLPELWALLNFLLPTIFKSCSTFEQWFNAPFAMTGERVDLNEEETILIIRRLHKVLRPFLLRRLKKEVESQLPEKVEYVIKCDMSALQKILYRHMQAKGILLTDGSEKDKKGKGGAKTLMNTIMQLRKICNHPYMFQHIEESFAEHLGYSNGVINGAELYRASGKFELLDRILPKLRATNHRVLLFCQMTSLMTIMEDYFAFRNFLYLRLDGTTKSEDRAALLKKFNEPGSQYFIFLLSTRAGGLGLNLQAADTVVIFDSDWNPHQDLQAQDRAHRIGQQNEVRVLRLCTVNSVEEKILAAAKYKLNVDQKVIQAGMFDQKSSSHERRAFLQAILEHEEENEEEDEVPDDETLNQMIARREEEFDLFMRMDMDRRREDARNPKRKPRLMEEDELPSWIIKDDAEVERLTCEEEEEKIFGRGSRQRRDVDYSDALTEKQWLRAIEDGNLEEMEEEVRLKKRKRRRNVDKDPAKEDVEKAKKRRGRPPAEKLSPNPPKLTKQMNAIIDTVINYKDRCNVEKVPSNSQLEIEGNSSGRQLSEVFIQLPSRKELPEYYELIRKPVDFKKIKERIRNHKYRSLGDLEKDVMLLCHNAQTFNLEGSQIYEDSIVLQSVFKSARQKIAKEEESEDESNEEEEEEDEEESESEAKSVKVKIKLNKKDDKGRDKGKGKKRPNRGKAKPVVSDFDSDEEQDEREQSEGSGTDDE
Experiment: ATPase catalytic activity of BRM, ADP-Glo in vitro biochemical assay
Conditions: selectivity ratio BRG1 IC50 / BRM IC50
Values of Ratio* (BRG1 IC50 (μM) divided by BRM IC50 (μM)) strictly less than 9 map to met, and values of at least 9 map to not met.

These solved cases illustrate the format of a correct answer.
[[record]]
molecule = "COc1cc(C(F)F)ccc1-c1ccc2cnc(CNC(=O)c3ccc4c(c3)S(=O)(=O)CCOC4)cc2n1 [Compound 118]"
assigned_class = "not met"

[[record]]
molecule = "C[C@@H]1CN(c2nccc(-c3ccc4cnc(CNC(=O)c5ccc(Cl)c(S(C)(=O)=O)c5)cc4n3)n2)C[C@H](C)O1 [Compound 180]"
assigned_class = "not met"

[[record]]
molecule = "Cc1cc(-c2ccc3cnc(CNC(=O)c4ccc5c(c4)S(=O)(=O)CCOC5)cc3n2)nc(N2C[C@@H](C)O[C@@H](C)C2)c1 [Compound 212]"
assigned_class = "met"


Query: Hello, is Ratio* (BRG1 IC50 (μM) divided by BRM IC50 (μM)) of the following molecule strictly smaller than 9? C[C@@H]1CN(c2cccc(-c3cnc4cnc(CNC(=O)c5ccc(C(F)F)c(S(C)(=O)=O)c5)cc4n3)n2)C[C@H](C)O1 [Compound 56]
Response: not met

Query: Record C[C@@H]1CN(c2cccc(-c3ccc4cnc(CNC(=O)c5cc(Cl)c6c(c5)S(=O)(=O)CCOC6)cc4n3)n2)C[C@H](C)O1 [Compound 143] : is its Ratio* (BRG1 IC50 (μM) divided by BRM IC50 (μM)) strictly below 9?
Response: not met

Query: Decide: Ratio* (BRG1 IC50 (μM) divided by BRM IC50 (μM)) of COC(C)(C)CN(C)c1cccc(-c2ccc3cnc(CNC(=O)c4ccc5c(c4)S(=O)(=O)CCOC5)cc3n2)n1 [Compound 44] strictly below 9?
Response: met

Query: Dear colleague, could you confirm whether Ratio* (BRG1 IC50 (μM) divided by BRM IC50 (μM)) of CS(=O)(=O)c1cc(C(=O)NCc2cc3nc(-c4cccc(C5CC5)n4)ccc3cn2)ccc1C#N [Compound 259] falls below 9? Thanks.
Response: not met

###

Target: BRM (Homo sapiens)
Construct: made in house; host or cells: High Five insect cells
Assay: ATPase catalytic activity of BRM, ADP-Glo in vitro biochemical assay
Settings: ADP-Glo ATPase assay, 30 nM BRM, 400 μM ATP
Binary call on IC50 with cut-off 30 nM: strictly below means fulfilled, and equality or higher means not fulfilled.

Solved entries:
[[record]]
compound = "O=C(NCc1cc2nc(N3CCOc4nc(C5CC5)ccc43)ccc2cn1)c1ccc2c(c1)S(=O)(=O)CCOC2 [Compound 843]"
assigned_class = "not fulfilled"

[[record]]
compound = "Cn1ccc2c(-c3ccc4cnc(CNC(=O)c5ccc6c(c5)S(=O)(=O)CCOC6)cc4n3)ccc(Cl)c21 [Compound 43]"
assigned_class = "fulfilled"

[[record]]
compound = "O=C(NCc1cc2nc(-c3cccc(C4(CF)CC4)n3)ccc2cn1)c1ccc2c(c1)S(=O)(=O)CCOC2 [Compound 120]"
assigned_class = "not fulfilled"


Query: Consider the compound COc1cc(C)nc2c1CCCN2c1ccc2cnc(CNC(=O)c3ccc4c(c3)S(=O)(=O)CCOC4)cc2n1 [Compound 732] . Is its IC50 strictly less than 30 nM?
Response: fulfilled

Query: Take the compound COc1ccccc1-c1ccc2cnc(CNC(=O)c3ccc4c(c3)S(=O)(=O)CCOC4)cc2n1 [Compound 254] and say whether its IC50 is less than 30 nM.
Response: not fulfilled

Query: Bench note: check whether O=C(NCc1cc2nc(-c3cncc(C4CC4)n3)ccc2cn1)c1ccc2c(c1)S(=O)(=O)NCCC2 [Compound 293] shows IC50 below 30 nM
Response: not fulfilled

###

Biological target: BRM (Homo sapiens, UniProt P51531)
Construct: made in house; host or cells: High Five insect cells
Assay: ATPase catalytic activity of BRM, ADP-Glo in vitro biochemical assay
Conditions: selectivity ratio BRG1 IC50 / BRM IC50
METRIC NAME: Ratio* (BRG1 IC50 (μM) divided by BRM IC50 (μM))

Log: BRM (Homo sapiens, UniProt P51531), compound `COC[C@@H](C)Nc1cccc(-c2ccc3cnc(CNC(=O)c4ccc(C(F)F)c(S(C)(=O)=O)c4)cc3n2)n1` , Ratio* (BRG1 IC50 (μM) divided by BRM IC50 (μM)) = 6.34

Value sought: Ratio* (BRG1 IC50 (μM) divided by BRM IC50 (μM)), system BRM (Homo sapiens, UniProt P51531), item `COCCNc1cccc(-c2ccc3cnc(CNC(=O)c4ccc(C(F)F)c(S(C)(=O)=O)c4)cc3n2)n1` . Result: 11.75

Entry `C[C@@H]1CN(c2cccc(-c3ccc4cnc(CNC(=O)c5ccc(Cl)c(S(C)(=O)=O)c5)cc4n3)n2)C[C@H](C)O1` , tested on BRM (Homo sapiens, UniProt P51531), has a reported Ratio* (BRG1 IC50 (μM) divided by BRM IC50 (μM)) of 13.94

Form field Ratio* (BRG1 IC50 (μM) divided by BRM IC50 (μM)) for item `O=C(NCc1cc2nc(-c3cccc(OCC(F)F)n3)ccc2cn1)c1ccc2c(c1)S(=O)(=O)CCOC2` on BRM (Homo sapiens, UniProt P51531): 13.95

Record for `COc1nn([C@H]2C[C@@H](F)C2)cc1-c1ccc2cnc(CNC(=O)c3ccc4c(c3)S(=O)(=O)CCOC4)cc2c1` under target or system BRM (Homo sapiens, UniProt P51531): Ratio* (BRG1 IC50 (μM) divided by BRM IC50 (μM)) reported as 13.28

Bench note, BRM (Homo sapiens, UniProt P51531): entry `CN(c1cccc(-c2ccc3cnc(CNC(=O)c4ccc5c(c4)S(=O)(=O)CCOC5)cc3n2)n1)[C@@H]1CCOC1` , its Ratio* (BRG1 IC50 (μM) divided by BRM IC50 (μM)) = 10.43

Field Ratio* (BRG1 IC50 (μM) divided by BRM IC50 (μM)) (system: BRM (Homo sapiens, UniProt P51531)) for entry `CO[C@H]1C[C@@H](c2cccc(-c3ccc4cnc(CNC(=O)c5ccc6c(c5)S(=O)(=O)CCOC6)cc4n3)n2)C1` = 9.79

###

Readings of IC50 for the listed compounds
Target: BRG-1 (Homo sapiens, UniProt P51532)
Construct: made in house; host or cells: High Five insect cells
Sequence (P51532 whole entry): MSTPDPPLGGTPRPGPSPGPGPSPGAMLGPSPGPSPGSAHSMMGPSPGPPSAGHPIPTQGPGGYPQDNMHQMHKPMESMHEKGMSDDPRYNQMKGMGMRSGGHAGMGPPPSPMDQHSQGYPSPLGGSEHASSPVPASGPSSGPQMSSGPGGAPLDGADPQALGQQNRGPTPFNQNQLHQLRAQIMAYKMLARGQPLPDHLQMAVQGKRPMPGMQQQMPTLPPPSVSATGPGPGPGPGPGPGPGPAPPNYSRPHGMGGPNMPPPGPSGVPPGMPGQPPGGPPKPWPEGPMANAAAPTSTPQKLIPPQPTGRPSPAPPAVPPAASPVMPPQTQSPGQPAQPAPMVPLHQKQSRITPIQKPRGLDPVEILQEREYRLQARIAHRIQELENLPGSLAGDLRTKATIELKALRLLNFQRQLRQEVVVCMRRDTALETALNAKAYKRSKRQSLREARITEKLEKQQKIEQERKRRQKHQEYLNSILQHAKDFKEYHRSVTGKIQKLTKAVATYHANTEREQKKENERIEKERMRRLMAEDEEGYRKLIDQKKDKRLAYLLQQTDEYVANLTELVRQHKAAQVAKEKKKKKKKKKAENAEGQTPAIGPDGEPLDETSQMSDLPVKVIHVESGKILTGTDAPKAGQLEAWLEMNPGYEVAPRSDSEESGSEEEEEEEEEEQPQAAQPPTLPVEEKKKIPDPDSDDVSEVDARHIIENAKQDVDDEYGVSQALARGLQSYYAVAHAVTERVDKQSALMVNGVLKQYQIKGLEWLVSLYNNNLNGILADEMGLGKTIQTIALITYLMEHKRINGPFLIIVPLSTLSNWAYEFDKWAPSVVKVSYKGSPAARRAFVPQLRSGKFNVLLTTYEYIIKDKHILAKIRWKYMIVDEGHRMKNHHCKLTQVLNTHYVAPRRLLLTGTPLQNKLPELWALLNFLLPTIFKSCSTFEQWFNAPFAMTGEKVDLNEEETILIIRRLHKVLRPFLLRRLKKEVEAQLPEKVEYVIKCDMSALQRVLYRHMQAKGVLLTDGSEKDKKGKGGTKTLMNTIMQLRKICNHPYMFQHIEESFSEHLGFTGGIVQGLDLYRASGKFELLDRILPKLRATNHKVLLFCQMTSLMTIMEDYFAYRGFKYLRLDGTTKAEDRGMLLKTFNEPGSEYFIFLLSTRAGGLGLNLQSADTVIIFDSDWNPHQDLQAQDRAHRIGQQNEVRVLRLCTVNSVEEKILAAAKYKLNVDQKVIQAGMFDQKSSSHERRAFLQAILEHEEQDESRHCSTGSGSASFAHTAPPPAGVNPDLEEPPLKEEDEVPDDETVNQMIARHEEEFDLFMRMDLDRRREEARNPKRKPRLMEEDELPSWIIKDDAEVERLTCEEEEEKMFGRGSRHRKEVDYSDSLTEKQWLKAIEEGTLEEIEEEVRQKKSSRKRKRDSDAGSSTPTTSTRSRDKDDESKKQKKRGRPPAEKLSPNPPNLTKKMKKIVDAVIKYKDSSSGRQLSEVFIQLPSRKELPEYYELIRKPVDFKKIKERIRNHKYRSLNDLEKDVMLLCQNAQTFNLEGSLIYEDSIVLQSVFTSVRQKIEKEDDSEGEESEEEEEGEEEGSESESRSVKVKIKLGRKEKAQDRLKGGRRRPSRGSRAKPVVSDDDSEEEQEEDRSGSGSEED
Test: ATPase catalytic activity of BRG-1, ADP-Glo in vitro biochemical assay
Conditions: ADP-Glo ATPase assay, 30 nM BRG-1, 400 μM ATP; read-out: BRG1 IC50
Quick reminder: number only, in nM, skip the unit.

In the examples that follow, each entry is paired with its recorded IC50.
[[record]]
compound = "O=C(NCc1cc2nc(-c3cccc(C4(CF)CC4)n3)ccc2cn1)c1ccc2c(c1)S(=O)(=O)CCOC2"
measurement_unit = "nM"
result = 469

[[record]]
compound = "O=C(NCc1cc2nc(N3CCOc4cc(C5CC5)c(F)c(F)c43)ccc2cn1)c1ccc2c(c1)S(=O)(=O)CCOC2"
measurement_unit = "nM"
result = 303

[[record]]
compound = "C[C@@H]1CN(c2cccc(-c3ccc4nnc(CNC(=O)c5ccc(C(F)F)c(S(C)(=O)=O)c5)cc4n3)n2)C[C@H](C)O1"
measurement_unit = "nM"
result = 88.4

[[record]]
compound = "CC(C)Oc1cccc(-c2ccc3cnc(CNC(=O)c4ccc5c(c4)S(=O)(=O)CCOC5)cc3n2)n1"
measurement_unit = "nM"
result = 2120

[[record]]
compound = "C[C@@H]1CN(c2cccc(-c3cnc4cnc(CNC(=O)c5ccc6c(c5)S(=O)(=O)CCOC6)cc4n3)c2)C[C@H](C)O1"
measurement_unit = "nM"
result = 169


Just so you know, measured IC50 for `O=C(NCc1cc2nc(N3CCOc4ccc(C56CC(C5)C6)nc43)ccc2cn1)c1ccc2c(c1)S(=O)(=O)CCOC2` came out at 179

The reported IC50 of the compound `COc1cc(F)cc2c1CCCN2c1ccc2cnc(CNC(=O)c3ccc4c(c3)S(=O)(=O)CCOC4)cc2n1` was 18.3

IC50 recorded for this compound, `C[C@@H]1CN(c2cccc(-c3cnc4cnc(CNC(=O)c5ccc6c(c5)S(=O)(=O)CCOC6)cc4c3)n2)C[C@H](C)O1` , is 45.2

For this compound ( `COCCN(C)c1cccc(-c2ccc3cnc(CNC(=O)c4cc(F)c5c(c4)S(=O)(=O)CCOC5)cc3n2)n1` ), measured IC50 is 94.1

Recorded IC50 (compound `Cc1nc(C)c2c(n1)N(c1ccc3cnc(CNC(=O)c4ccc5c(c4)S(=O)(=O)CCOC5)cc3n1)CCC2` ): 2080

Kindly note the recorded IC50 for `COc1cc2c(cn1)N(c1ccc3cnc(CNC(=O)c4ccc5c(c4)S(=O)(=O)CCOC5)cc3n1)CCC2` , which is 580

Briefly, IC50 measured for `O=C(NCc1cc2nc(-c3cccc(N4CC[C@H](F)C4)n3)ccc2cn1)c1ccc2c(c1)S(=O)(=O)CCOC2` : 365
